- System: Giardia parasite cultures
- protocol notes: Reversibility of compound effect on Giardia viability and attachment
- Format: cell-based, Giardia lamblia
- condition notes: 15 μM, 30 minutes-2 hours in PBS at 37° C., wash, 48 hours in growth media
reported endpoint: reversibility of effect on parasite attachment and viability

Solved entries:
{"molecule": "O=C1C=C(N2CCN(c3ccccn3)CC2)C(=O)c2c(O)ccc(O)c21 [Compound IV-1]", "assayed system": "Giardia parasite cultures", "value observed": "irreversible"}
{"molecule": "Cc1c(Cl)cc(C(C)(C)C)c(O)c1Cc1c(C)c(Cl)cc(C(C)(C)C)c1O [Compound VI-1]", "assayed system": "Giardia parasite cultures", "value observed": "largely reversible"}
{"molecule": "CC(Br)C(=O)c1ccc2cc(Br)c3ccccc3c2c1 (stereo not drawn) [Compound III-1]", "assayed system": "Giardia parasite cultures", "value observed": "irreversible"}
{"molecule": "C[C@H]1CC[C@@H]2[C@@H](C)[C@H]3[C@H](C[C@H]4[C@@H]5CC=C6C[C@@H](O)CC[C@]6(C)[C@H]5CC[C@]34C)N2C1 [Compound VIII-2A]", "assayed system": "Giardia parasite cultures", "value observed": "largely reversible"}
{"molecule": "Nc1nc(SCc2ccccc2[N+](=O)[O-])c2[nH]cnc2n1 [Compound V-1]", "assayed system": "Giardia parasite cultures", "value observed": "largely reversible"}

Next:
Give the reported reversibility of effect on parasite attachment and viability for Oc1ccc2ccccc2c1CN(Cc1c(O)ccc2ccccc12)C1CCCCC1 [Compound I-16] (system: Giardia parasite cultures).
largely reversible
